In this section, each of the molecules is paired with its reported AUC(0-t).
test: Pharmacokinetic (PK) assay in mice; type: in vivo; conditions: mouse, plasma; Po 5 mg/kg, CD-1 mice
Record the value in ng·h/mL, omitting the unit from your answer.

Worked cases, answers included:
* CCS(=O)(=O)c1ccc(CC(=O)Nc2cc(Cl)c(-c3ccc(S(C)(=O)=O)cc3)c(Cl)c2)cc1 | 12600
* CS(=O)(=O)c1ccc(C(CO)C(=O)Nc2cc(Cl)c(-c3ccc(S(=O)(=O)C4CC4)cc3)c(Cl)c2)cc1 (single isomer, unassigned) | 1440

Now consider the entry below.
Q) Returns the measured AUC(0-t) for the input molecule. Input: CCS(=O)(=O)c1ccc(C(COC)C(=O)Nc2cc(Cl)c(-c3ccc(S(=O)(=O)C4CC4)cc3)c(Cl)c2)cc1 (stereo not drawn) [Example 16]
A) 10300

----------
assay: Metabolic stability in human liver microsomes; assay type: in vitro ADME; conditions: 0.5 mg protein/mL
In this section, each of the molecules is paired with its reported microsomal CLint.

Worked cases, answers included:
- CS(=O)(=O)c1ccc(-c2c(Cl)cc(NC(=O)Cc3ccc(S(=O)(=O)CCO)cc3)cc2Cl)cc1: 14.9 µL/min/mg
- CCS(=O)(=O)c1ccc(CC(=O)Nc2cc(Cl)c(-c3ccc(S(=O)(=O)C4CC4)cc3)c(Cl)c2)nc1: < 9.6 µL/min/mg
- CCS(=O)(=O)c1ccc(CC(=O)Nc2cc(Cl)c(-c3ccc(S(C)(=O)=O)cc3)c(Cl)c2)cc1: < 9.6 µL/min/mg
- CCS(=O)(=O)c1ccc(-c2c(Cl)cc(NC(=O)Cc3ccc(S(C)(=O)=O)cc3)cc2Cl)cc1: < 9.6 µL/min/mg
- CCS(=O)(=O)c1ccc(C(COC)C(=O)Nc2cc(Cl)c(-c3ccc(S(=O)(=O)C4CC4)cc3)c(Cl)c2)cc1 (stereo not shown) [Example 16]: < 9.6 µL/min/mg

Q) Returns the measured microsomal CLint for the input molecule. Input: COCC(C(=O)Nc1cc(Cl)c(-c2ccc(S(=O)(=O)C3CC3)cc2)c(Cl)c1)c1ccc(S(C)(=O)=O)cc1 (stereo not shown) [Example 20]
A) 17.3 µL/min/mg

Q) Returns the measured microsomal CLint for the input molecule. Input: CCS(=O)(=O)c1ccc(CC(=O)Nc2cc(Cl)c(-c3ccc(S(=O)(=O)C4CC4)cc3)c(Cl)c2)cc1
A) < 9.6 µL/min/mg

----------
experiment: Metabolic stability in human liver microsomes; type: in vitro ADME; conditions: 60 min
assayMetric: % Remaining (T = 60 min)
Please state the value followed by its unit.

Worked cases, answers included:
* CC(C)Cc1ccc(-c2c(Cl)cc(NC(=O)Cc3ccc(S(C)(=O)=O)cc3)cc2Cl)cc1C#N [LIT-00093, reference compound] | 0%
* CCS(=O)(=O)c1ccc(CC(=O)Nc2cc(Cl)c(-c3ccc(S(C)(=O)=O)cc3)c(Cl)c2)nc1 | 95.6%
* CS(=O)(=O)c1ccc(CC(=O)Nc2cc(Cl)c(-c3ccc(S(=O)(=O)C4CC4)cc3)c(Cl)c2)cc1 | 110.5%

Now consider the entry below.
Q) Returns the measured % Remaining (T = 60 min) for the input compound. Input: CCS(=O)(=O)c1ccc(-c2c(Cl)cc(NC(=O)Cc3ccc(S(C)(=O)=O)cc3)cc2Cl)cc1
A) 83.4%

src = patent US20220402867A1
